Biological target: WWP2^HECT (Homo sapiens)
Construct: GST-TEV (N, cleaved yes); made in house; host or cells: Escherichia coli BL21 (DE3)
Sequence (O00308 492-865): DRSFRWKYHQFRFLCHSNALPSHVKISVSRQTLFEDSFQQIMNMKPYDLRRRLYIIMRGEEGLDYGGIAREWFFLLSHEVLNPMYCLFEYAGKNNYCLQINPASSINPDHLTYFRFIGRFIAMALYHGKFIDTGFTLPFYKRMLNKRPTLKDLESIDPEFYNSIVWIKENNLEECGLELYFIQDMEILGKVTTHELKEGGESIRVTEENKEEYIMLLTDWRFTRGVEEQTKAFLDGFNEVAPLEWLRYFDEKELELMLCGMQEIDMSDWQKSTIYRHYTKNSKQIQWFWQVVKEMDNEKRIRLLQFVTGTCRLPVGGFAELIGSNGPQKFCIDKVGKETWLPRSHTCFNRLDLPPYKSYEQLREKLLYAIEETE
Test: Naive Library Presenter Screening (phage, NGS), WWP2^HECT
Format: binding
Settings: WWP2 target concentration 30 nM
# interaction data at Target Concentration 30 annotations
# print the numeric value only

Note to self: interaction data at Target Concentration 30 recorded for `DPAYHHCLAAADLCSFF` was 97

----------
Quick reference for Phage library screen NGS readout, BLANK among some sequences
Biological target: RNF31 PUB domain (Homo sapiens, UniProt Q96EP0)
Construct: MBP-TEV (N, cleaved yes); made in house; host or cells: E. coli BL21 (DE3) pLysS
Sequence (Q96EP0 1-179): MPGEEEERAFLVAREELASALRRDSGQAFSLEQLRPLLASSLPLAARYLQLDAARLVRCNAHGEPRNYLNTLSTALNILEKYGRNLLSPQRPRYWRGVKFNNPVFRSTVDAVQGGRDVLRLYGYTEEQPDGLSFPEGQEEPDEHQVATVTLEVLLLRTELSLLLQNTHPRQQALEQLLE
Assay: Phage Library Screening with NGS, RNF31 PUB domain
Assay type: binding
Conditions: clusters C41-C45; BLANK screen, column 5 of 5

The cases that follow already have their Phage library screen NGS readout, BLANK on record.
# entry_sequence, assayed_target, recorded_endpoint, endpoint_result
measured = [
    ("DPAYTLCSWAAMYCDSM", "RNF31 PUB domain (Homo sapiens, UniProt Q96EP0)", "Phage library screen NGS readout, BLANK", 2),
    ("DPAEDECQDAAILCSYN", "RNF31 PUB domain (Homo sapiens, UniProt Q96EP0)", "Phage library screen NGS readout, BLANK", 1),
    ("DPAMEWCWDAAVFCTYS", "RNF31 PUB domain (Homo sapiens, UniProt Q96EP0)", "Phage library screen NGS readout, BLANK", 1),
    ("DPARRECWDAAILCTYY", "RNF31 PUB domain (Homo sapiens, UniProt Q96EP0)", "Phage library screen NGS readout, BLANK", 0),
]

get_value(item= `DPAMQECMDAAIMCTYA` , readout=Phage library screen NGS readout, BLANK) returns 0

Just so you know, measured Phage library screen NGS readout, BLANK for `DPAWTDCDWAALYCDES` came out at 0

----------
Test system: Expi293 cells
Test: CellTiter-Glo cell health (ATP levels) during cell association assay
Assay type: cell-based
Conditions: reflective of cell health, luminescence Tfinal (22 hours) / Tinitial
Examples of compounds with documented CellTiter-Glo fold change ± SD follow.

# compound, recorded_endpoint, endpoint_result
measured = [
    ("CCCC[C@H](NC(=O)[C@@H](NC(C)=O)C(C)C)C(=O)N[C@@H](CCC(=O)O)C(=O)N[C@]1(C)CCCCCCC=CCCC[C@@](C)(C(=O)N[C@@H](Cc2c[nH]cn2)C(=O)N[C@@H](Cc2ccc(O)cc2)C(=O)N[C@H](C(N)=O)C(C)C)NC(=O)[C@H]([C@@H](C)CC)NC(=O)[C@H](Cc2ccccc2)NC(=O)[C@H](C)NC(=O)[C@H](C)NC(=O)[C@H](CCC(N)=O)NC(=O)[C@H](Cc2ccc(O)cc2)NC1=O (single isomer, unassigned) [FP07867]", "CellTiter-Glo fold change ± SD", "1.2 ± 0.03"),
]

Value of CellTiter-Glo fold change ± SD reported for the compound CCCC[C@H](NC(=O)[C@@H](NC(C)=O)C(C)C)C(=O)N[C@@H](CCC(N)=O)C(=O)N[C@]1(C)CCCCCCC=CCCC[C@@](C)(C(=O)N[C@@H](Cc2c[nH]cn2)C(=O)N[C@@H](Cc2ccc(O)cc2)C(=O)N[C@H](C(N)=O)C(C)C)NC(=O)[C@H]([C@@H](C)CC)NC(=O)[C@H](Cc2ccccc2)NC(=O)[C@H](C)NC(=O)[C@H](C)NC(=O)[C@H](CCC(=O)O)NC(=O)[C@H](Cc2ccc(O)cc2)NC1=O (single isomer, unassigned) [FP07863] is 1.2 ± 0.02

----------
Molecular target: RNF31 PUB domain (Homo sapiens)
Construct: MBP-TEV (N, cleaved yes); made in house; host or cells: E. coli BL21 (DE3) pLysS
Sequence (Q96EP0 1-179): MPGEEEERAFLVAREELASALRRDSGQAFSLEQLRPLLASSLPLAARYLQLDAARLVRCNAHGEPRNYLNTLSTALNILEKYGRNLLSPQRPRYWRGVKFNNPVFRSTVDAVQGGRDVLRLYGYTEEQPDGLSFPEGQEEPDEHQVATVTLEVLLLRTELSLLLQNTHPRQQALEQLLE
Assay: Phage Library Screening with NGS, RNF31 PUB domain
Assay type: binding
Conditions: clusters C41-C45; BLANK screen, column 3 of 5
Bridge positions count the residues as written; N and C are the ends. Ends that are not written are not given here.
Quick reference: Phage library screen NGS readout, BLANK of the listed items.
Reply with the value as a number alone.

Would you please look over these solved cases?
# entry_sequence, recorded_endpoint, endpoint_result
data = [
    ("DPAYDWCMYAAHECVDQ", "Phage library screen NGS readout, BLANK", 0),
    ("DPAQHECIYAAWDCDML", "Phage library screen NGS readout, BLANK", 0),
    ("DPAFAQCEVAAMVCTTY", "Phage library screen NGS readout, BLANK", 0),
    ("DPAYSSCSWAAIYCNWT", "Phage library screen NGS readout, BLANK", 4),
    ("DPAYDWCMYAAYNCVED", "Phage library screen NGS readout, BLANK", 0),
    ("DPAWTQCDWAALYCEDQ", "Phage library screen NGS readout, BLANK", 0),
    ("DPAYRDCDWAALYCDDF", "Phage library screen NGS readout, BLANK", 0),
    ("DPALWDCLYAADACITS (not fully specified; cysteine pairing not given here)", "Phage library screen NGS readout, BLANK", 1),
    ("DPAQMECIDAAIMCSYT", "Phage library screen NGS readout, BLANK", 0),
    ("DPAFMDCVFAAAVCATY", "Phage library screen NGS readout, BLANK", 1),
]

Shift focus to the following entry.
Phage library screen NGS readout, BLANK recorded for this sequence, DPAIVQCAWAALYCDMQ (Ac-DPAIVQCAWAALYCDMQ-NH2; bridge 7-14; also: Cys-Cys staple, linker not named) , is 0

----------
Target: RNF31 PUB domain (Homo sapiens, UniProt Q96EP0)
Construct: MBP-TEV (N, cleaved yes); made in house; host or cells: E. coli BL21 (DE3) pLysS
Sequence (Q96EP0 1-179): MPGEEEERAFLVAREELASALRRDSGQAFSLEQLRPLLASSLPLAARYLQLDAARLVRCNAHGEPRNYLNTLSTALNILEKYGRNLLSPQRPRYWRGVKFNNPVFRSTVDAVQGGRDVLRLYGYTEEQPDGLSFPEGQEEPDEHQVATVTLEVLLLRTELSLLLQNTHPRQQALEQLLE
Assay: Phage Library Screening with NGS, RNF31 PUB domain
Assay type: binding
Conditions: clusters C41-C45; BLANK screen, column 2 of 5
recorded_endpoint: Phage library screen NGS readout, BLANK
Just the number.

Example entries and their recorded answers appear below.
# entry_sequence, Phage library screen NGS readout, BLANK
measured = [
    ("DPAYTLCSWAAMYCDSM", 1),
    ("DPAYWHCLYAAASCDDI", 3),
    ("DPARDWCLYAAYDCYTA (Ac-DPARDWCLYAAYDCYTA-NH2; not fully specified (bridges); cysteine pairing not given here)", 0),
]

I looked up `DPAYDWCLYAAYQCDQN` and its Phage library screen NGS readout, BLANK for RNF31 PUB domain (Homo sapiens, UniProt Q96EP0) was 0

Summary line: `DPAIQECYLAAQVCTTY` , RNF31 PUB domain (Homo sapiens, UniProt Q96EP0), reported Phage library screen NGS readout, BLANK = 0

----------
Biological target: MDM2 (Homo sapiens)
Construct: made in house
Sequence (Q00987 25-109): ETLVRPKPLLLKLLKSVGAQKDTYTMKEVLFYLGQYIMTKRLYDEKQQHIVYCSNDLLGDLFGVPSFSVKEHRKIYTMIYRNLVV
Assay: Naive Library Presenter Screening (phage, NGS), MDM2
Assay type: binding
Details: MDM2 clusters (C82, C85); target concentration 1000 nM, second column
Numbered stars: 1 amine (or outer) side, 2 acyl side, 3 side chain; on linkers, the order of the positions; unused ones are H or OH. Bridge positions count the residues as written; N and C are the ends. Ends that are not written are not given here. Phenylene(1,4-NHCOCH2)2 = O=C(C[*:1])Nc1ccc(NC(=O)C[*:2])cc1
The following sequences are listed with their measured interaction data at Target Concentration 1000 values.
Write the number on its own, no unit after it.

Examples from the recorded data:
# entry_sequence, endpoint_result
measured = [
    ("DPARVHCNQAAFMCHWV (DPARVHCNQAAFMCHWV-NH2; linker 7-14 via Phenylene(1,4-NHCOCH2)2 (inferred))", 8),
    ("DPAHQQCFMAAWRCVVH (linker 7-14 via Phenylene(1,4-NHCOCH2)2 (inferred))", 327),
    ("DPAMSNCFMAAWECLIQ (linker 7-14 via Phenylene(1,4-NHCOCH2)2 (inferred); not fully specified (C-terminus))", 176),
    ("DPAQEDCHAAAFWCIWD (DPAQEDCHAAAFWCIWD-NH2; linker 7-14 via Phenylene(1,4-NHCOCH2)2 (inferred))", 48),
]

Just so you know, measured interaction data at Target Concentration 1000 for DPAQSDCFQAAWECVAN (DPAQSDCFQAAWECVAN-NH2; linker 7-14 via Phenylene(1,4-NHCOCH2)2 (inferred)) came out at 29

DPADRDCFSAAWACVIR (linker 7-14 via Phenylene(1,4-NHCOCH2)2 (inferred)) has a reported interaction data at Target Concentration 1000 of 215

interaction data at Target Concentration 1000 reported for this sequence DPADIVCQDAAFQCFWW (linker 7-14 via Phenylene(1,4-NHCOCH2)2 (inferred)) : 18
